target: human CD26 on the cell surface (human, UniProt P27487 1-766); assay: cell-based or functional assay
Sequence (P27487 whole entry): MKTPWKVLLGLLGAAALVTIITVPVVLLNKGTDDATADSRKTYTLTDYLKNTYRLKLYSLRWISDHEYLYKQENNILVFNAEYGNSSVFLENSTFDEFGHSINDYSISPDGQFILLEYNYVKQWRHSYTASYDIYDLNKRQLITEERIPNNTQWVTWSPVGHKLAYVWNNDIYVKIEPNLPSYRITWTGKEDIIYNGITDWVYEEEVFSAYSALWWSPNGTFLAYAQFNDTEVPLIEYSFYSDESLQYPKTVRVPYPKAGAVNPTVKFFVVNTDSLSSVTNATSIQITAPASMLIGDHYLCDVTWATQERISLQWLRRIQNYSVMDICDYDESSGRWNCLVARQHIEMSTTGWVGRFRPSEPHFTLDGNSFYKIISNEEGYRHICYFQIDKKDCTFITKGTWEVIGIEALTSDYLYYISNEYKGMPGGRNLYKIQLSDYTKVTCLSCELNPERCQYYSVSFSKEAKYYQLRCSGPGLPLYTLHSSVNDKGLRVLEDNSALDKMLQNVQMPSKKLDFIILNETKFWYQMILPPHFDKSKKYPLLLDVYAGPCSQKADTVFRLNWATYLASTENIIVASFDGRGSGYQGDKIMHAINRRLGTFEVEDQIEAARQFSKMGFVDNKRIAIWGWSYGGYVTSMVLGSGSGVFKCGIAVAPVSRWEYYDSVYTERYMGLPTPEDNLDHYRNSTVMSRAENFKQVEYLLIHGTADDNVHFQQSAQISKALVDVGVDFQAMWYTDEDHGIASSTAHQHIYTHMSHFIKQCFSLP
The entries below come with measured percent inhibition, MTT assay, Jurkat CD26+ cells, 0.25 ug/ml values attached.
Give the value, in units of %, as a plain number.

Example binders with recorded percent inhibition, MTT assay, Jurkat CD26+ cells, 0.25 ug/ml:
rhuMAb 409 (antibody, human IgG1, V domains shown, CM03 VH and VL with human IgG1 heavy chain constant region and human kappa constant region; also called X409) VH: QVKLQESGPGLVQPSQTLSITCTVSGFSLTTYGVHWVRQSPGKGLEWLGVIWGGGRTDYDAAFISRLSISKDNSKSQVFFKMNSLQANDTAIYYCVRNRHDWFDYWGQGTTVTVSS VL: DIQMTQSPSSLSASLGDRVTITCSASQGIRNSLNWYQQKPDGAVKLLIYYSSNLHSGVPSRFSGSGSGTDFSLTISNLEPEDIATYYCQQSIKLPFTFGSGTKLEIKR : 12.9
rhuMAb 410 (antibody, human IgG1, V domains shown) VH: EVQLVQSGGGLKQPGETLRLSCTASGYSLTTYGVHWVRQAPGKGLEWMGVIWGDGRTDYDSSFMSRVTISKDTSKSTAYLQLNSLRAEDTAVYYCTRNRHDWFDYWGQGTTVTVSS VL: DILMTQSPSSLSASPGDRVTISCRASQDIRNNLNWYQQKPGQAPRLLIYYSSNLHSGVPDRFSGSGSGTDFTLTISRLEPEDFAAYYCQQSIKLPLTFGSGTKVEIKR : 10.7
rhuMAb 420 (antibody, human IgG1, V domains shown, X420 VH and X380 VL with human IgG1 and human kappa constant regions; also called X420 (IgG1)) VH: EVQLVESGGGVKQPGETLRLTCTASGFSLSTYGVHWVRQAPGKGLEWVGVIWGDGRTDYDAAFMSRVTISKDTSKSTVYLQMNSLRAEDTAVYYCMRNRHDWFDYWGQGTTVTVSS VL: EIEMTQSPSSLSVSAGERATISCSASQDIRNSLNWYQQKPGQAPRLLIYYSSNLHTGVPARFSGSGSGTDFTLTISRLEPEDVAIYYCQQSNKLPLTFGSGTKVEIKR : 9.6

Task: Which percent inhibition, MTT assay, Jurkat CD26+ cells, 0.25 ug/ml is listed for rhuMAb 412 (antibody, human IgG1, V domains shown, X385 VH and X380 VL with human IgG1 and human kappa constant regions; also called X412) VH: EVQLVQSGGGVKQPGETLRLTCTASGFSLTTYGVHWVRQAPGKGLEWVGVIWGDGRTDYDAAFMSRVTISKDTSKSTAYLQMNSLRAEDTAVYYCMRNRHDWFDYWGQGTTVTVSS VL: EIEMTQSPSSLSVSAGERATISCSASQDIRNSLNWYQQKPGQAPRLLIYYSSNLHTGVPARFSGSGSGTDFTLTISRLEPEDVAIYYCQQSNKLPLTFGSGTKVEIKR ?
Result: 5.4
